System: DNA target; 5′-dGCT AGA GAA GTC G (SEQ ID NO: 37)
method: UV thermal melting, two triazole linkages (MeC-T steps), DNA target
Type: binding
condition summary: Table 6; 10 mM phosphate, 200 mM NaCl, pH 7.0, 3.0 μM each strand
In the oligonucleotide strings, read from the 5' end, every base follows the letter of its sugar. An asterisk marks phosphorothioate; unmarked linkages are phosphodiester. Other units and linkages are bracketed, terminal groups are in braces. A string of capitals states the bases alone. [tz] = triazole internucleoside linkage replacing phosphodiester; l = locked nucleic acid (LNA); [5mC] = 5-methylcytosine; d = 2'-deoxy (DNA)
value type: Tm, DNA target (°C)
Write down the numeric answer in °C and omit the unit.

Q: What Tm, DNA target appears in the records for this substance with DNA target; 5′-dGCT AGA GAA GTC G (SEQ ID NO: 37)? 5′-dCGA^MeCtT^LTCT^MeCtT^LAGC (DNA dCdGdAd[5mC][tz]lTdTdCdTd[5mC][tz]lTdAdGdC; further chemistry not given here) [ON8]
Ans: 48.0

Q: What Tm, DNA target appears in the records for this substance with DNA target; 5′-dGCT AGA GAA GTC G (SEQ ID NO: 37)? CGA^MeCTTCT^MeCTAGC (DNA dCdGdAd[5mC]dTdTdCdTd[5mC]dTdAdGdC) [ON7]
Ans: 57.1

Q: What Tm, DNA target appears in the records for this substance with DNA target; 5′-dGCT AGA GAA GTC G (SEQ ID NO: 37)? CGA^MeCT^LTCT^MeCT^LAGC (DNA dCdGdAd[5mC]lTdTdCdTd[5mC]lTdAdGdC) [ON10]
Ans: 62.2

Q: What Tm, DNA target appears in the records for this substance with DNA target; 5′-dGCT AGA GAA GTC G (SEQ ID NO: 37)? 5′-dCGA^MeCtTTCT^MeCtTAGC (DNA dCdGdAd[5mC][tz]dTdTdCdTd[5mC][tz]dTdAdGdC; further chemistry not given here) [ON9]
Ans: 42.3
